Assignment: determine reported composite z-score for the given compounds.
# Tested on: Sonic hedgehog protein (Shh)
# Protocol Summary: small-molecule binders of Shh protein, primary screen, biochemical, small-molecule microarray, 635/667 nm fluorescence (AID 1151);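 also: Shh protein binding to compounds spotted on small-molecule microarray slides; score combines spot fluorescence intensity with signal-to-noise across triplicate slides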
# Study Conditions: small-molecule microarray binding, 635 nm fluorescence; higher = more signal
Give the figure by itself; no unit, no explanation.

I would be grateful if you could share the reported composite z-score for COCCCNC(=O)[C@]1(Cc2ccccc2N=[N+]=[N-])N=C(c2ccc(OCCCO)cc2)O[C@@H]1c1ccccc1 .
-0.223

And the next one, COCCOC(=O)N1C(=O)[C@@]2(c3cc(C#CCNC(N)=O)ccc31)[C@H](C(=O)N1CCN(c3ncccn3)CC1)[C@H]1C(=O)O[C@H](c3ccccc3)[C@H](c3ccccc3)N1[C@@H]2c1ccc(O)cc1 ?
-0.448

And the next one, Cc1c(NC(=O)/C(C#N)=C/C=C/c2ccc([N+](=O)[O-])cc2)c(=O)n(-c2ccccc2)n1C ?
0.569
